- assay-system: human orexin type 2 receptor (Homo sapiens)
- Construct: expressed in transfected cells
- Sequence (O43614 whole entry): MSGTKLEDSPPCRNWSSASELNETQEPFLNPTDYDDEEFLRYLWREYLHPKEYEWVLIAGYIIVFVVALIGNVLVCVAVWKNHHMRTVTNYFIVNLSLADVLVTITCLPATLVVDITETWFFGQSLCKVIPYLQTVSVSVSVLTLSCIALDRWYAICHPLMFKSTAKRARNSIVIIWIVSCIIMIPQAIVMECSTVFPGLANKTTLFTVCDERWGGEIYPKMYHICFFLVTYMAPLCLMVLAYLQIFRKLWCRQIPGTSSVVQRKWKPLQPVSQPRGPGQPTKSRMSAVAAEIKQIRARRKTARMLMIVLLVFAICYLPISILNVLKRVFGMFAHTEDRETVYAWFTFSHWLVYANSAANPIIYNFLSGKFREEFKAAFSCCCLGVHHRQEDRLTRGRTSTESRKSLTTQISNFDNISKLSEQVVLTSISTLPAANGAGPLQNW
- experiment: Measurement of orexin type 2 receptor agonist activity (calcium indicator fluorescence, CHO cells forcibly expressing human OX2 receptor)
- Type: cell-based
- condition-label: compound at 3 μM; 0% = DMSO, 100% = orexin A (human) 10 nM
readout-kind: OX2R agonist activity (3 μM, %)
Respond with the bare value in %.

Recorded results for 4 compounds are shown here.
{"columns": ["compound", "readout-kind", "measured-value"],
 "data": [
  ["O=C(C1CCO1)N1CC(F)(F)[C@H](NS(=O)(=O)C2CC2)[C@@H]1Cc1cccc(-c2cc(F)cc(F)c2)c1F (some centres unmarked)", "OX2R agonist activity (3 μM, %)", 92],
  ["CCS(=O)(=O)N[C@@H]1[C@H](Cc2cccc(-c3cc(F)ccc3F)c2F)N(C(=O)[C@H]2C[C@H](F)C2)CC1(F)F", "OX2R agonist activity (3 μM, %)", 99],
  ["Cc1cccc(-c2cccc(C[C@H]3[C@@H](NS(=O)(=O)N(C)C)C(F)(F)CN3C(=O)C3(O)CCC3)c2F)c1", "OX2R agonist activity (3 μM, %)", 99],
  ["CCS(=O)(=O)N[C@H]1[C@@H](F)CN(C(=O)C2CC2)[C@H]1Cc1cccc(-c2ccccc2F)c1F", "OX2R agonist activity (3 μM, %)", 98]
]}

# next compound below
Q: Would you kindly share the measured OX2R agonist activity (3 μM, %) for O=C(N1CCC1)N1CC(F)(F)[C@H](NS(=O)(=O)C2CC2)[C@@H]1Cc1cccc(-c2cc(F)cc(F)c2)c1F ?
Result: 85

Values were extracted from patent US20230040770A1.
